molecular target: T1, HER3-ECD^I-II (residues 20-329), recombinant domains I and II of HER3 expressed in Drosophila S2 cells (human, UniProt P21860 20-329); assay: SPR (BIAcore), trx-hrg immobilized, HER3-ECD^I-II in solution
T1 construct: Monomer by light scattering and ultracentrifugation; The N-terminal Drosophila leader comes from the vector; the protein is secreted; also called HER3^I-II; H3 I-II
T1 sequence (P21860 20-329): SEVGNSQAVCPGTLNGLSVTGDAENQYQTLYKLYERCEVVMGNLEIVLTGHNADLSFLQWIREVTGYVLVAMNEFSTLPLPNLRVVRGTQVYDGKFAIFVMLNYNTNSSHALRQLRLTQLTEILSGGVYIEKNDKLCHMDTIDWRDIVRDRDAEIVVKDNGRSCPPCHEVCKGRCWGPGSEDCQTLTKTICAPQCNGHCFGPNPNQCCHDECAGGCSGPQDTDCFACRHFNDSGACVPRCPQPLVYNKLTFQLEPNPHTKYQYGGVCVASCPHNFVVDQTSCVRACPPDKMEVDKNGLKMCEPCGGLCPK
endpoint-name: Kd (nM)
Give bare numbers, in nM.

State the recorded Kd for this entry: trx-hrg, thioredoxin-heregulin fusion with a C-terminal His and S-tag (ligand, Made as in Landgraf et al. 1998; also called S-tagged hrg; immobilized hrg; not shown: thioredoxin; C-terminal His tag and S-tag) SHLVKCAEKEKTFCVNGGECFMVKDLSNPSRYLCKCPNEFTGDRCQNYVMASFYKHLGIEF
68
